target: human Y2 receptor (human) (UniProt P49146); assay: RBA: displacement of [125I]-PYY from hY2R/CHO membranes
Sequence (P49146 whole entry): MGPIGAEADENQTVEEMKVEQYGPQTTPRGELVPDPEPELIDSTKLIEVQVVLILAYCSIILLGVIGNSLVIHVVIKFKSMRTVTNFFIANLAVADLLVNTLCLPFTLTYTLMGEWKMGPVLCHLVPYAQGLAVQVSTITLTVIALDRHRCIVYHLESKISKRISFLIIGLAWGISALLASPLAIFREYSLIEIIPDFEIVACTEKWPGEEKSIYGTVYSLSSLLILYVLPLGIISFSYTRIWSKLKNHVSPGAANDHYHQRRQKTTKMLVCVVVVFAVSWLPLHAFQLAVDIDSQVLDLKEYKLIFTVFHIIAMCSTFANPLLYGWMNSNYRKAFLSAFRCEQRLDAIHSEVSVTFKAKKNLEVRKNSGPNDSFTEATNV
Non-standard residues stand in square brackets, D forms with d. hArg = N=C(N)NCCCC[C@H](N)C(=O)O; 4Pal = N[C@@H](Cc1ccncc1)C(=O)O; Cha = N[C@@H](CC1CCCCC1)C(=O)O; Aib = CC(C)(N)C(=O)O
Reported Metric: IC50 Ratio (IC50 compound/IC50 PYY(3-36))

# Binder, Obs Value
data = [
    ("Ac-S[Aib]R[4Pal][Cha][Aib]NK[Aib]TRQR[Cha]-NH2 (SMILES CC(=O)N[C@@H](CO)C(=O)NC(C)(C)C(=O)N[C@@H](CCCNC(=N)N)C(=O)N[C@@H](Cc1ccncc1)C(=O)N[C@@H](CC1CCCCC1)C(=O)NC(C)(C)C(=O)N[C@@H](CC(N)=O)C(=O)N[C@@H](CCCCN)C(=O)NC(C)(C)C(=O)N[C@H](C(=O)N[C@@H](CCCNC(=N)N)C(=O)N[C@@H](CCC(N)=O)C(=O)N[C@@H](CCCNC(=N)N)C(=O)N[C@@H](CC1CCCCC1)C(N)=O)[C@@H](C)O) [Ac-[Aib24,28,31, Pya(4)26, Cha27,36, Lys30]-PYY(23-36)]", 0.81),
]

Then this binder:
Q: Look up IC50 Ratio (IC50 compound/IC50 PYY(3-36)) for this binder: Ac-S[dP][hArg]H[Cha][Aib]NK[Aib]TRQR[Cha]-NH2 (SMILES CC(=O)N[C@@H](CO)C(=O)N1CCC[C@@H]1C(=O)N[C@@H](CCCCNC(=N)N)C(=O)N[C@@H](Cc1c[nH]cn1)C(=O)N[C@@H](CC1CCCCC1)C(=O)NC(C)(C)C(=O)N[C@@H](CC(N)=O)C(=O)N[C@@H](CCCCN)C(=O)NC(C)(C)C(=O)N[C@H](C(=O)N[C@@H](CCCNC(=N)N)C(=O)N[C@@H](CCC(N)=O)C(=O)N[C@@H](CCCNC(=N)N)C(=O)N[C@@H](CC1CCCCC1)C(N)=O)[C@@H](C)O) [Ac-[D-Pro24, Har25, Cha27,36, Aib28,31, Lys30]-PYY(23-36)]
Ans: 1.2
